Listing: Activity of selected molecules
Target: 5-hydroxytryptamine receptor 2C (Homo sapiens)
Sequence (whole entry): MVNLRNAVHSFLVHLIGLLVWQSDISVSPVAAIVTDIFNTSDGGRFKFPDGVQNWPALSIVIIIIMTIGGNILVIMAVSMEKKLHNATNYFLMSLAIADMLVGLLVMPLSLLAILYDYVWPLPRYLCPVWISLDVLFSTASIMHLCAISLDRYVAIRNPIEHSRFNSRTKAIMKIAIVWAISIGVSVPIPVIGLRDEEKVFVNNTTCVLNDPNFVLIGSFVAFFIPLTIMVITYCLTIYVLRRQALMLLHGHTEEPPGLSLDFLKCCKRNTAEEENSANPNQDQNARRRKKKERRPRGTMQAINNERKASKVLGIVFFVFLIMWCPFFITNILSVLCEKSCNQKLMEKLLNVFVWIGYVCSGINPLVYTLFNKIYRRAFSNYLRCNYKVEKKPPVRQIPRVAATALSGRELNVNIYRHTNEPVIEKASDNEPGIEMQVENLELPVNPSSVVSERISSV
Assay: Displacement of [3H]-Mesulergine from human 5-HT2C expressed in Flp-In-T-REx-293 cells at 10 uM incubated for 1 hr relative to control
Assay type: cell-based

>  <molecule>
CCCCSC[C@@]12C[C@@H]1[C@@H](n1cnc3c(NC(C4CCCC4)C4CCCC4)nc(Cl)nc31)[C@H](O)[C@@H]2O

>  <Activity (%)>
27

$$$$
>  <molecule>
NC[C@H]1O[C@@H](n2cnc3c(N[C@H](C4CCC4)C4CC4)nc(I)nc32)[C@H](O)[C@@H]1O

>  <Activity (%)>
-1

$$$$
>  <molecule>
O[C@H]1[C@H](n2cnc3c(NC(C4CCCC4)C4CCCC4)nc(Cl)nc32)[C@H]2C[C@@]2(CSc2ccccc2F)[C@H]1O

>  <Activity (%)>
37

$$$$
>  <molecule>
COCCN(CCOC)C(=O)[C@]12C[C@H]1[C@H](n1cnc3c(NC(C4CC4)C4CC4)nc(Cl)nc31)[C@@H](O)[C@H]2O (single isomer, unassigned)

>  <Activity (%)>
38

$$$$
>  <molecule>
COCCN(CCOC)C(=O)[C@]12C[C@H]1[C@H](n1cnc3c(N)nc(Cl)nc31)[C@@H](O)[C@H]2O (single isomer, unassigned)

>  <Activity (%)>
12

$$$$
>  <molecule>
CSC[C@@]12C[C@@H]1[C@@H](n1cnc3c(N)nc(I)nc31)[C@H](O)[C@@H]2O

>  <Activity (%)>
12

$$$$
>  <molecule>
Nc1nc(I)nc2c1ncn2[C@H]1[C@H](O)[C@H](O)[C@]2(CO)C[C@H]12

>  <Activity (%)>
-38

$$$$
>  <molecule>
Ic1nc(N[C@H](C2CCC2)C2CC2)c2nc[nH]c2n1

>  <Activity (%)>
5

$$$$
>  <molecule>
Nc1nc(I)nc2c1ncn2[C@H]1[C@H](O)[C@H](O)[C@]2(CCl)C[C@H]12

>  <Activity (%)>
12

$$$$
>  <molecule>
OC[C@H]1O[C@@H](n2cnc3c(N[C@H](C4CCC4)C4CC4)nc(I)nc32)[C@H](O)[C@@H]1O

>  <Activity (%)>
-1

$$$$
